Quick reference for IC50 among some compounds
# system: NRAS Q61R (Homo sapiens, UniProt P01111+P62937, Q61R)
# Sequence (P01111 whole entry Q61R, one chain of several): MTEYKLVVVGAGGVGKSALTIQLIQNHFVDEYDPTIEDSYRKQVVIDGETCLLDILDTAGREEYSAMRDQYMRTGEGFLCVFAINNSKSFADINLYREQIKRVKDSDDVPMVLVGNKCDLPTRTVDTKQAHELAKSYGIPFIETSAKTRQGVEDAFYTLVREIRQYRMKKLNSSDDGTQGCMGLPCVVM
# assayRemarks: Ras-Raf disruption / FRET / MOA assay (BRAF RBD)
# Assay type: biochemical
# reportedConditions: NRAS Q61R; read-out: NRAS Q61R FRET data IC50

* CCn1c(-c2cccnc2[C@H](C)OC)c2c3cc(ccc31)-c1cc(O)cc(c1)C[C@H](NC(=O)[C@H](C(C)C)N(C)C(=O)N1CC[C@@H](N(C)C(=O)[C@@H]3CN3)C1)C(=O)N1CCC[C@H](N1)C(=O)OCC(C)(C)C2 (atropisomer, axis not shown) [Example 253] | 0.1 to 1 µM

// next entry
// lookup IC50 for CCn1c(-c2cccnc2[C@H](C)OC)c2c3cc(ccc31)-c1cc(O)cc(c1)C[C@H](NC(=O)[C@H](C(C)C)N(C)C(=O)[C@@H]1CCCN(C(=O)[C@H]3CN3)C1)C(=O)N1CCC[C@H](N1)C(=O)OCC(C)(C)C2 (atropisomer, axis not shown) [Example 237]
0.1 to 1 µM

---

# system: NRAS G12C (Homo sapiens, UniProt P01111+P62937, G12C)
# Sequence (P01111 whole entry G12C): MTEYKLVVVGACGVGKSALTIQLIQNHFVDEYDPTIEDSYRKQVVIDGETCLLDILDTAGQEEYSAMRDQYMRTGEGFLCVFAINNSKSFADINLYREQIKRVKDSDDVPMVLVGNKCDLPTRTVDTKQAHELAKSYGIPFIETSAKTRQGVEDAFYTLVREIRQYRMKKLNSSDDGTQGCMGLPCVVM
# Sequence (P62937 whole entry): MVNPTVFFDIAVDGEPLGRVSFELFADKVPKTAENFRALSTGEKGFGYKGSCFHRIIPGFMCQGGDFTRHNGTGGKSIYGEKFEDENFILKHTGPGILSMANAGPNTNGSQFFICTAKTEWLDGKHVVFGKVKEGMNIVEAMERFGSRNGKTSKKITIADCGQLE
# assayRemarks: Ras-Raf disruption / FRET / MOA assay (BRAF RBD)
# Format: biochemical
# reportedConditions: NRAS G12C; read-out: NRAS G12C FRET data IC50
Quick reference for IC50 among some compounds

- CCn1c(-c2cccnc2[C@H](C)OC)c2c3cc(ccc31)-c1cc(O)cc(c1)C[C@H](NC(=O)[C@H](C(C)C)N(C)C(=O)[C@@H]1CN1)C(=O)N1CCC[C@H](N1)C(=O)OCC(C)(C)C2: 10 to 100 nM
- CCn1c(-c2cccnc2[C@H](C)OC)c2c3cc(ccc31)-c1csc(n1)C[C@H](NC(=O)[C@H](C(C)C)N(C)C(=O)N1CCN(C(=O)[C@@H]3CN3)[C@H](C)C1)C(=O)N1CCC[C@H](N1)C(=O)OCC(C)(C)C2: 10 to 100 nM
- CCn1c(-c2cccnc2[C@H](C)OC)c2c3cc(ccc31)-c1cc(O)cc(c1)C[C@H](NC(=O)[C@H](C1CCCC1)N1CC[C@@]3(CCN(C(=O)[C@H]4CN4)C3)C1=O)C(=O)N1CCC[C@H](N1)C(=O)OCC(C)(C)C2: < 10 nM
- CCn1c(-c2cccnc2[C@H](C)OC)c2c3cc(ccc31)-c1csc(n1)C[C@H](NC(=O)[C@H](C(C)C)N(C)C(=O)N1CC[C@H](N(C)C(=O)[C@@H]3CN3)C1)C(=O)N1CCC[C@H](N1)C(=O)OCC(C)(C)C2 (atropisomer, axis not shown): 100 to 1000 nM
- CCn1c(-c2cccnc2[C@H](C)OC)c2c3cc(ccc31)-c1cc(O)cc(c1)C[C@H](NC(=O)[C@H](C(C)C)N(C)C(=O)c1nc(NC(=O)[C@H]3CN3)cs1)C(=O)N1CCC[C@H](N1)C(=O)OCC(C)(C)C2 (atropisomer, axis not shown): 100 to 1000 nM

// next entry
// lookup IC50 for `CCn1c(-c2cccnc2[C@H](C)OC)c2c3cc(ccc31)-c1cccc(c1)C[C@H](NC(=O)[C@H](C(C)C)N(C)C(=O)[C@H]1C[C@H](N=C=NCc3ccccc3OC)C1)C(=O)N1CCC[C@H](N1)C(=O)OCC(C)(C)C2`
10 to 100 nM

---

# Test system: NCI-H358 (K-Ras G12C)
# assayRemarks: CellTiter-Glo cell viability assay, 5-day treatment
# Type: cell-based
# reportedConditions: Homo sapiens, NCI-H358, H358, K-Ras G12C; read-out: Additional H358 Cell Viability assay data (K-Ras G12C, IC50)
measuredAttribute: IC50

• C=CC(=O)N1CCOC2(CCN(C(=O)N(C)[C@H](C(=O)N[C@H]3CN4CCC=C(C4)c4ccc5c(c4)c(c(-c4cccnc4[C@H](C)OC)n5CC)CC(C)(C)COC(=O)[C@@H]4CCCN(N4)C3=O)C(C)C)CC2)C1 [Example A563] = 100 to 1000 nM
• CCn1c(-c2cccnc2[C@H](C)OC)c2c3cc(ccc31)N1CCC[C@@H](C[C@H](NC(=O)[C@H](C(C)C)N(C)C(=O)C3(F)CCN(C(=O)C#CC(C)(C)N(C)C)CC3)C(=O)N3CCCC(N3)C(=O)OCC(C)(C)C2)C1 [Example A616] = < 10 nM
• C=CC(=O)N1CC[C@H](C(=O)N(C)[C@H](C(=O)N[C@H]2Cc3nc(cs3)-c3ccc4c(n3)c(c(-c3cccnc3[C@H](C)OC)n4CC)CC(C)(C)COC(=O)[C@@H]3CCCN(N3)C2=O)C(C)C)C1 [Example A347] = 100 to 1000 nM

// next entry
// lookup IC50 for C=CC(=O)N1CC[C@H](C(=O)N(C)[C@H](C(=O)N[C@H]2Cc3cc(O)cc(c3)-c3ccc4c(c3)c(c(-c3ccncc3COC)n4CC)CC(C)(C)COC(=O)[C@@H]3CCCN(N3)C2=O)C(C)C)C1 [Example A91]
< 10 nM

---

# system: KRAS WT (Homo sapiens, UniProt P01116+P62937)
# Sequence (P01116 1-169 isoform P01116-2 limits assumed, one chain of several): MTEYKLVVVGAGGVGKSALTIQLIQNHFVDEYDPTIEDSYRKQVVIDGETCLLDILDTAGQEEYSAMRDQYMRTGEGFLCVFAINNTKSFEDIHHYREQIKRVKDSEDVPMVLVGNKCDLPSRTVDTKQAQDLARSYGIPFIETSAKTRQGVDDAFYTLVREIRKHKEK
# assayRemarks: Disruption of BRAF RBD interaction with Ras (FRET / MOA assay, with Cyclophilin A)
# Format: biochemical
# reportedConditions: KRAS WT; read-out: KRAS WT FRET data IC50
Quick reference for IC50 among some compounds

* CO[C@@H](C)c1ncccc1-c1c2c3cc(ccc3n1C)-c1csc(n1)C[C@H](NC(=O)[C@H](C(C)C)N(C)C(C)=O)C(=O)N1CCC[C@H](N1)C(=O)OCC(C)(C)C2 (racemic) | > 10000 nM
* CCn1c(-c2cccnc2[C@H](C)OC)c2c3cc(ccc31)-c1csc(n1)C[C@H](NC(=O)[C@H](C(C)C)N(C)C(=O)N1CCC[C@@H](CN(C)C)C1)C(=O)N1CCC[C@H](N1)C(=O)OCC(C)(C)C2 | 10 to 100 nM
* CCn1c(-c2cccnc2[C@H](C)OC)c2c3cc(ccc31)-c1cc(O)cc(c1)C[C@H](NC(=O)[C@H](C(C)C)N(C)C(=O)C1(C#N)CC1)C(=O)N1CCC[C@H](N1)C(=O)OCC(C)(C)C2 (racemic) | 10 to 100 nM

// next entry
// lookup IC50 for CCn1c(-c2cc(N3CCN(C)CC3)cnc2[C@H](C)OC)c2c3cc(ccc31)-c1csc(n1)C[C@H](NC(C)=O)C(=O)N1CCC[C@H](N1)C(=O)OCC(C)(C)C2 (atropisomer, axis not shown) [Example A340]
> 10000 nM

---

# system: KRAS G13D (Homo sapiens, UniProt P01116+P62937, G13D)
# Sequence (P01116 1-169 isoform P01116-2 G13D limits assumed, one chain of several): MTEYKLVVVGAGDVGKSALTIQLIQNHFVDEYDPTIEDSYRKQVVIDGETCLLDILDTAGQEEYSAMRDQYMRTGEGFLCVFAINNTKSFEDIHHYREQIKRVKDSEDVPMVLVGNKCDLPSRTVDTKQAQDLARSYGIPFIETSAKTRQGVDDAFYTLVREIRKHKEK
# assayRemarks: Ras-Raf disruption / FRET / MOA assay (BRAF RBD)
# Assay type: biochemical
# reportedConditions: Ras-Raf disruption, with Cyclophilin A; read-out: KRAS G13D FRET data IC50
Quick reference for IC50 among some compounds

- CCn1c(-c2cccnc2[C@H](C)OC)c2c3cc(ccc31)-c1cc(O)cc(c1)C[C@H](NC(=O)[C@H](C(C)C)N(C)C(=O)C1CCN(C(=O)[C@H]3CN3)CC1)C(=O)N1CCC[C@H](N1)C(=O)OCC(C)(C)C2: 10 to 100 nM

// lookup IC50 for CCn1c(-c2cccnc2[C@H](C)OC)c2c3cc(ccc31)-c1cc(O)cc(c1)C[C@H](NC(=O)[C@H](C(C)C)N(C)C(=O)[C@H]1CCN(S(=O)(=O)[C@H]3CN3C)C1)C(=O)N1CCC[C@H](N1)C(=O)OCC(C)(C)C2 (single isomer, unassigned)
100 to 1000 nM

// lookup IC50 for CCn1c(-c2cccnc2[C@H](C)OC)c2c3cc(ccc31)-c1cc(O)cc(c1)C[C@H](NC(=O)[C@H](C(C)C)N(C)C(=O)[C@H]1CCN(C(=O)[C@@H]3N[C@@H]3C3CC3)C1)C(=O)N1CCC[C@H](N1)C(=O)OCC(C)(C)C2 (atropisomer, axis not shown)
10 to 100 nM

// lookup IC50 for CCn1c(-c2cccnc2[C@H](C)OC)c2c3cc(ccc31)-c1csc(n1)C[C@H](NC(=O)[C@H](C(C)C)N(C)C(=O)N1CC[C@H](N(C)C(=O)[C@@H]3CN3)C1)C(=O)N1CCC[C@H](N1)C(=O)OCC(C)(C)C2 (atropisomer, axis not shown)
100 to 1000 nM

// lookup IC50 for CCn1c(-c2cccnc2[C@H](C)OC)c2c3cc(ccc31)-c1cc(O)cc(c1)C[C@H](NC(=O)[C@H](C(C)C)N(C)C(=O)N(C)CCN(C)C(=O)[C@H]1CN1)C(=O)N1CCC[C@H](N1)C(=O)OCC(C)(C)C2 (atropisomer, axis not shown)
10 to 100 nM

// lookup IC50 for `CCn1c(-c2cccnc2[C@H](C)OC)c2c3cc(ccc31)-c1cccc(c1)C[C@H](NC(=O)[C@H](C(C)C)N(C)C(=O)CCN=C=NCc1ccccc1OC)C(=O)N1CCC[C@H](N1)C(=O)OCC(C)(C)C2`
1000 to 10000 nM

// lookup IC50 for CCn1c(-c2cccnc2[C@H](C)OC)c2c3cc(ccc31)-c1cc(O)cc(c1)C[C@H](NC(=O)[C@H](C(C)C)N(C)C(=O)[C@@H]1CCN(C(=O)[C@H]3CN3)[C@@H]1C)C(=O)N1CCC[C@H](N1)C(=O)OCC(C)(C)C2 (atropisomer, axis not shown)
100 to 1000 nM

// lookup IC50 for `CCn1c(-c2cccnc2[C@H](C)OC)c2c3cc(ccc31)-c1csc(n1)C[C@H](NC(=O)[C@H](C(C)C)N(C)C(=O)N1CCN(C(=O)[C@H]3CN3)[C@H](C)C1)C(=O)N1CCC[C@H](N1)C(=O)OCC(C)(C)C2`
100 to 1000 nM

// lookup IC50 for `CCn1c(-c2cnccc2COC)c2c3cc(ccc31)-c1cccc(c1)C[C@H](NC(=O)[C@H](C(C)C)N(C)C(=O)CCN=C=NCCOC)C(=O)N1CCC[C@H](N1)C(=O)OCC(C)(C)C2`
> 10000 nM

// lookup IC50 for `CCOC(=O)[C@H]1O[C@@H]1C(=O)N1CC[C@H](C(=O)N(C)[C@H](C(=O)N[C@H]2Cc3cc(O)cc(c3)-c3ccc4c(c3)c(c(-c3cccnc3[C@H](C)OC)n4CC)CC(C)(C)COC(=O)[C@@H]3CCCN(N3)C2=O)C(C)C)C1`
10 to 100 nM

// lookup IC50 for CCn1c(-c2cccnc2[C@H](C)OC)c2c3cc(ccc31)-c1cc(O)cc(c1)C[C@H](NC(=O)[C@H](C(C)C)N(C)C(=O)N1CC[C@@H](N(C)C(=O)[C@@H]3CN3)C1)C(=O)N1CCC[C@H](N1)C(=O)OCC(C)(C)C2 (atropisomer, axis not shown)
100 to 1000 nM

// lookup IC50 for CCn1c(-c2cccnc2[C@H](C)OC)c2c3cc(ccc31)-c1csc(n1)C[C@H](NC(=O)[C@H](C(C)C)N(C)C(=O)N1CCCN(C(=O)[C@H]3CN3)CC1)C(=O)N1CCC[C@H](N1)C(=O)OCC(C)(C)C2 (atropisomer, axis not shown)
100 to 1000 nM

// lookup IC50 for `CCn1c(-c2cccnc2[C@H](C)OC)c2c3cc(ccc31)-c1cc(O)cc(c1)C[C@H](NC(=O)[C@H](C(C)C)N1CC[C@@]3(CCN(C(=O)[C@@H]4N[C@@H]4C4CC4)C3)C1=O)C(=O)N1CCC[C@H](N1)C(=O)OCC(C)(C)C2`
100 to 1000 nM

// lookup IC50 for CCn1c(-c2cccnc2[C@H](C)OC)c2c3cc(ccc31)-c1csc(n1)C[C@H](NC(=O)[C@H](C(C)C)N(C)C(=O)N1CC[C@H](N(C)C(=O)[C@H]3CN3)C1)C(=O)N1CCC[C@H](N1)C(=O)OCC(C)(C)C2 (atropisomer, axis not shown)
100 to 1000 nM

// lookup IC50 for CCn1c(-c2cccnc2[C@H](C)OC)c2c3cc(ccc31)-c1cc(O)cc(c1)C[C@H](NC(=O)[C@H](C(C)C)N(C)C(=O)N1CC[C@H](N(C)C(=O)[C@H]3CN3)C1)C(=O)N1CCC[C@H](N1)C(=O)OCC(C)(C)C2 (atropisomer, axis not shown)
100 to 1000 nM
